assay: Approximate solubility of Compound 1 Form A at room temperature; assay type: physicochemical; settings: ACN/water (1:1), aqueous with cosolvent or surfactant or cyclodextrin, thermodynamic from solid, ACN/water (1:1), 1 day
parameter_measured: solubility at 1 day

Ask | Please give the measured solubility at 1 day for this compound: CCOCc1cnc(Cl)nc1Oc1ccc2c(ccc3sc4c(c32)NC[C@@H](C)NC4=O)n1 [Form A]
Reply | < 1000 µg/mL

----------
assay: Approximate solubility of Compound 1 Form A at room temperature; format: physicochemical; conditions: EtOAc (ethyl acetate), organic solvent or mixture, thermodynamic from solid, EtOAc, 1 day
parameter_measured: solubility at 1 day

Ask | # query: solubility at 1 day of entry CCOCc1cnc(Cl)nc1Oc1ccc2c(ccc3sc4c(c32)NC[C@@H](C)NC4=O)n1 [Form A]
Reply | < 1000 µg/mL

----------
test: Approximate solubility of Compound 1 Form A at room temperature; assay type: physicochemical; conditions: ACN (acetonitrile), organic solvent or mixture, thermodynamic from solid, ACN, 1 day
Text: […]
parameter_measured: solubility at 1 day

Ask | State the recorded solubility at 1 day for this entry: CCOCc1cnc(Cl)nc1Oc1ccc2c(ccc3sc4c(c32)NC[C@@H](C)NC4=O)n1 [Form A]
Reply | < 2000 µg/mL

----------
experiment: Approximate solubility of Compound 1 Form A at room temperature; format: physicochemical; settings: THF (tetrahydrofuran), organic solvent or mixture, thermodynamic from solid, THF, 1 day
parameter_measured: solubility at 1 day

Ask | Which solubility at 1 day is listed for CCOCc1cnc(Cl)nc1Oc1ccc2c(ccc3sc4c(c32)NC[C@@H](C)NC4=O)n1 [Form A] ?
Reply | 8 to 16 mg/mL

----------
assay: Approximate solubility of Compound 1 Form A at room temperature; assay type: physicochemical; settings: heptane, organic solvent or mixture, thermodynamic from solid, 1 day
parameter_measured: solubility at 1 day

Ask | Returns the measured solubility at 1 day for the input molecule. Input: CCOCc1cnc(Cl)nc1Oc1ccc2c(ccc3sc4c(c32)NC[C@@H](C)NC4=O)n1 [Form A]
Reply | < 1 mg/mL

----------
assay: Approximate solubility of Compound 1 Form A at room temperature; type: physicochemical; details: MTBE (methyl t-butyl ether), organic solvent or mixture, thermodynamic from solid, MTBE, 1 day
parameter_measured: solubility at 1 day

Ask | Entry CCOCc1cnc(Cl)nc1Oc1ccc2c(ccc3sc4c(c32)NC[C@@H](C)NC4=O)n1 [Form A] : reported solubility at 1 day = ?
Reply | < 1000 µg/mL

----------
assay: Approximate solubility of Compound 1 Form A at room temperature; type: physicochemical; settings: MEK (methyl ethyl ketone), organic solvent or mixture, thermodynamic from solid, MEK, 1 day
parameter_measured: solubility at 1 day

Ask | For the compound CCOCc1cnc(Cl)nc1Oc1ccc2c(ccc3sc4c(c32)NC[C@@H](C)NC4=O)n1 [Form A] , what solubility at 1 day is on record?
Reply | > 2000 µg/mL

----------
assay: Approximate solubility of Compound 1 Form A at room temperature; format: physicochemical; conditions: IPA (2-propanol), organic solvent or mixture, thermodynamic from solid, IPA, 1 day
parameter_measured: solubility at 1 day

Ask | Param item = CCOCc1cnc(Cl)nc1Oc1ccc2c(ccc3sc4c(c32)NC[C@@H](C)NC4=O)n1 [Form A] ; retrieve measured solubility at 1 day.
Reply | < 1000 µg/mL

----------
Test: Form conversion (form transfer) experiments: slurry, compression, heating, humidity cycle
Assay type: physicochemical
Details: heating in KF oven, 190° C., ~10 min
Method: Form conversion experiments were performed to determine interconversion among solid forms. The stability of Form A was further characterized by compression test and form transfer experiments (Table 6). Upon application of 2000-psi pressure for about 1 minute, the material was still Form A, with broader diffraction peaks (FIG. 42(c)).

compound	Resulting Form(s)
CCOCc1cnc(Cl)nc1Oc1ccc2c(ccc3sc4c(c32)NC[C@@H](C)NC4=O)n1 [Form A]	confirmed to be Form A
CCOCc1cnc(Cl)nc1Oc1ccc2c(ccc3sc4c(c32)NC[C@@H](C)NC4=O)n1 [Form B]	confirmed to be Form A
CCOCc1cnc(Cl)nc1Oc1ccc2c(ccc3sc4c(c32)NC[C@@H](C)NC4=O)n1 [Form D]	confirmed to be Form A

----------
test: Dynamic vapor sorption (DVS) hygroscopicity; assay type: physicochemical; conditions: between 0 and 90% RH, room temperature
parameter_measured: DVS water uptake

Ask | So what does the record say about DVS water uptake for CCOCc1cnc(Cl)nc1Oc1ccc2c(ccc3sc4c(c32)NC[C@@H](C)NC4=O)n1 [Form E] ?
Reply | 7.5 wt %

----------
assay: Approximate solubility of Compound 1 Form A at room temperature; assay type: physicochemical; settings: DMSO, organic solvent or mixture, thermodynamic from solid, 1 day
parameter_measured: solubility at 1 day

Ask | So what's the measured solubility at 1 day for this one? CCOCc1cnc(Cl)nc1Oc1ccc2c(ccc3sc4c(c32)NC[C@@H](C)NC4=O)n1 [Form A]
Reply | > 50 mg/mL

----------
test: Approximate solubility of Compound 1 Form A at room temperature; assay type: physicochemical; conditions: EtOH/water (1:1), aqueous with cosolvent or surfactant or cyclodextrin, thermodynamic from solid, EtOH/water (1:1), 1 day
parameter_measured: solubility at 1 day

Ask | Returns the measured solubility at 1 day for the input compound. Input: CCOCc1cnc(Cl)nc1Oc1ccc2c(ccc3sc4c(c32)NC[C@@H](C)NC4=O)n1 [Form A]
Reply | < 1000 µg/mL

----------
test: Approximate solubility of Compound 1 Form A at room temperature; assay type: physicochemical; conditions: organic solvent or mixture, thermodynamic from solid, all other solvents tested (not DMSO, DMA, NMP, THF/water, THF, DCM, acetone, 1,4-dioxane, MEK)
parameter_measured: solubility at 1 day

Ask | I would be grateful if you could share the reported solubility at 1 day for CCOCc1cnc(Cl)nc1Oc1ccc2c(ccc3sc4c(c32)NC[C@@H](C)NC4=O)n1 [Form A] .
Reply | < 3000 µg/mL

----------
assay: Approximate solubility of Compound 1 Form A at room temperature; assay type: physicochemical; conditions: DCM (dichloromethane), organic solvent or mixture, thermodynamic from solid, DCM, 1 day
parameter_measured: solubility at 1 day

Ask | Item CCOCc1cnc(Cl)nc1Oc1ccc2c(ccc3sc4c(c32)NC[C@@H](C)NC4=O)n1 [Form A] has what recorded solubility at 1 day?
Reply | 8 to 16 mg/mL
